pKi: −log10 of the molar value.
5-hydroxytryptamine receptor 2A (Homo sapiens, UniProt P28223): recorded pKi for assorted compounds
Sequence (P28223 whole entry): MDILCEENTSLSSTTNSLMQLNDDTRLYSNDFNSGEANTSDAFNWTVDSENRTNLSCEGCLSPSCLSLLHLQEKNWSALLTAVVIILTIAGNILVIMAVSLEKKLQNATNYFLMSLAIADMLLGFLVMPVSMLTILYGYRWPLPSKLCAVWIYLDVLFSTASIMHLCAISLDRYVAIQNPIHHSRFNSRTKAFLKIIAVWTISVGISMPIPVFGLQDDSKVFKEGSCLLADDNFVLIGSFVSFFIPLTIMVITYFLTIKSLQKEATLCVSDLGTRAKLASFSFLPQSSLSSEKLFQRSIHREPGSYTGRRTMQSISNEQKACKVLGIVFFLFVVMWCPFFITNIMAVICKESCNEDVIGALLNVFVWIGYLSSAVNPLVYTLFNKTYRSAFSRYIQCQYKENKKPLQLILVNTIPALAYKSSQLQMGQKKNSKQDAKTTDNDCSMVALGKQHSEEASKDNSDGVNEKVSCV
OUTCOME MEASURE: pKi

SMILES STRUCTURE: Cc1cc(OCCCCN2CCN(c3ccccc3C#N)CC2)c2c(C)cc(=O)oc2c1
TGT: 5-hydroxytryptamine receptor 2A (Homo sapiens, UniProt P28223)
pKi: 6.95
//
SMILES STRUCTURE: CC(=O)c1c(C)cc2oc(=O)cc(C)c2c1OCCCCN1CCN(c2cnccn2)CC1
TGT: 5-hydroxytryptamine receptor 2A (Homo sapiens, UniProt P28223)
pKi: 5.60
//
SMILES STRUCTURE: CC(=O)c1c(C)cc2oc(=O)cc(C)c2c1OCCCCN1CCN(c2ccncc2)CC1
TGT: 5-hydroxytryptamine receptor 2A (Homo sapiens, UniProt P28223)
pKi: 5.80
//
SMILES STRUCTURE: CC(=O)c1c(C)cc2oc(=O)cc(C)c2c1OCCCCN1CCN(c2ccc(Cl)cc2)CC1
TGT: 5-hydroxytryptamine receptor 2A (Homo sapiens, UniProt P28223)
pKi: 8.77
//
SMILES STRUCTURE: Cc1cc(OCCCN2CCN(c3cccc(Cl)c3Cl)CC2)c2c(C)cc(=O)oc2c1
TGT: 5-hydroxytryptamine receptor 2A (Homo sapiens, UniProt P28223)
pKi: 7.38

(a) CC(=O)c1c(C)cc2oc(=O)cc(C)c2c1OCCCN1CCN(c2cccc(Cl)c2Cl)CC1
(b) CC(=O)c1c(C)cc2oc(=O)cc(C)c2c1OCCCN1CCN(c2ccc(Cl)cc2)CC1
Challenge: Please state the entry with greater pKi among a and b . Reply with the label of the item you choose.
Response given: b

(I) Cc1cc(OCCCN2CCN(c3ccccc3F)CC2)c2c(C)cc(=O)oc2c1
(II) CC(=O)c1c(C)cc2oc(=O)cc(C)c2c1OCCCCN1CCOCC1
(III) Cc1cc(OCCCCN2CCN(c3ccccc3F)CC2)c2c(C)cc(=O)oc2c1
Challenge: Ordering criterion: pKi; begin with the maximum. Give your ranking as a list of the labels in the requested order.
Response given: I, III, II

(a) Cc1cc(OCCCN2CCN(c3ccc(Cl)cc3)CC2)c2c(C)cc(=O)oc2c1
(b) Cc1cc(OCCCCN2CCN(c3ccc(Cl)cc3)CC2)c2c(C)cc(=O)oc2c1
(c) Cc1cc(OCCCCN2CCN(c3cccc(Cl)c3Cl)CC2)c2c(C)cc(=O)oc2c1
Challenge: Ordering criterion: pKi; begin with the maximum. Give your ranking as a list of the labels in the requested order.
Response given: a, c, b

----------
5-hydroxytryptamine receptor 1A (Homo sapiens): recorded Ki for assorted compounds
Sequence (P08908 whole entry): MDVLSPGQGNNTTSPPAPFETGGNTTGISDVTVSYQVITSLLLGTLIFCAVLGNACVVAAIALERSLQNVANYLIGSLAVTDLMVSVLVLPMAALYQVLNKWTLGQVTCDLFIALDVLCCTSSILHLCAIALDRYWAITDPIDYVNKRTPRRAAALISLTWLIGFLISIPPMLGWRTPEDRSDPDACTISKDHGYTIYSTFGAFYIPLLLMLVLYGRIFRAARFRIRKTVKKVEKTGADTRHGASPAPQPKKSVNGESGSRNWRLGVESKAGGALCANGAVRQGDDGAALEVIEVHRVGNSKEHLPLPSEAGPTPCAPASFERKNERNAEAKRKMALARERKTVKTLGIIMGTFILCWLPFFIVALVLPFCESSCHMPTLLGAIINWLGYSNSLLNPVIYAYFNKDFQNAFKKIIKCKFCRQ
OUTCOME MEASURE: Ki (nM)

SMILES STRUCTURE: CC(=O)c1c(C)cc2oc(=O)cc(C)c2c1OCCCN1CCN(c2ccncc2)CC1
Ki [nM]: 154

(P) Cc1cc(OCCCCN2CCN(c3cccc(Cl)c3Cl)CC2)c2c(C)cc(=O)oc2c1
(Q) Cc1cc(OCCCCN2CCOCC2)c2c(C)cc(=O)oc2c1
Challenge: Please state the entry with greater Ki among P and Q . Reply with the label of the item you choose.
Response given: Q
(Q: 3500 nM, P: 8 nM)

(1) CC(=O)c1c(C)cc2oc(=O)cc(C)c2c1OCCCCN1CCN(c2ccc(Cl)cc2)CC1
(2) CC(=O)c1c(C)cc2oc(=O)cc(C)c2c1OCCCN1CCOCC1
(3) Cc1cc(OCCCN2CCN(c3ccccc3C#N)CC2)c2c(C)cc(=O)oc2c1
(4) Cc1cc(OCCCN2CCN(c3cnccn3)CC2)c2c(C)cc(=O)oc2c1
Challenge: Ordering criterion: Ki; begin with the maximum. Give your ranking as a list of the labels in the requested order.
Response given: 2, 4, 1, 3

(P) CC(=O)c1c(C)cc2oc(=O)cc(C)c2c1OCCCN1CCN(c2cnccn2)CC1
(Q) Cc1cc(OCCCCN2CCN(c3ccncc3)CC2)c2c(C)cc(=O)oc2c1
(R) Cc1cc(OCCCCN2CCN(c3ccccc3C#N)CC2)c2c(C)cc(=O)oc2c1
Challenge: Ordering criterion: Ki; begin with the maximum. Give your ranking as a list of the labels in the requested order.
Response given: Q, P, R
(Q: 389 nM, P: 11 nM, R: 1.5 nM)

(1) CC(=O)c1c(C)cc2oc(=O)cc(C)c2c1OCCCCN1CCOCC1
(2) Cc1cc(OCCCCN2CCN(c3ccccc3F)CC2)c2c(C)cc(=O)oc2c1
Challenge: Please state the entry with greater Ki among 1 and 2 . Reply with the label of the item you choose.
Response given: 1
(1: 250 nM, 2: 1.7 nM)

(1) CC(=O)c1c(C)cc2oc(=O)cc(C)c2c1OCCCCN1CCN(c2cccc(Cl)c2Cl)CC1
(2) Cc1cc(OCCCN2CCN(c3ccncc3)CC2)c2c(C)cc(=O)oc2c1
Challenge: Please state the entry with greater Ki among 1 and 2 . Reply with the label of the item you choose.
Response given: 2
